Just for reference, patent US20160143995A1 is where these values come from.

# assay text: MTS staining for PBMC viability to measure cytotoxicity
# Type: cell-based, human
# conditions: human, PHA-stimulated pooled PBMCs, HIV-infected; infected PBMCs, six days, MTS; high-test concentration 1,000 nM; unit printed only with high-test concentration; read-out: TC50 (50% cytotoxicity)
quantity kind: CC50 at 6 days

// query Which CC50 at 6 days is reported for this compound? Cc1cn([C@H]2C[C@H](N=[N+]=[N-])[C@@H](CO)O2)c(=O)[nH]c1=O [AZT, Zidovudine]
// result > 1000 nM

====

# assay text: MTS staining for PBMC viability to measure cytotoxicity
# Assay type: cell-based, human
# conditions: human, PHA-stimulated pooled PBMCs, HIV-infected; infected PBMCs, six days, MTS; high-test concentration 10 μM; unit printed only with high-test concentration; read-out: TC50 (50% cytotoxicity)
quantity kind: CC50 at 6 days (µM)
Hi! Could you send only the number? It should be in µM, unit omitted.

// query Entry CC[C@H](NC(=O)[C@H](C)NC)C(=O)N1C[C@@H](O)C[C@H]1Cc1c(-c2[nH]c3cc(F)ccc3c2C[C@@H]2C[C@H](O)CN2C(=O)[C@H](CC)NC(=O)[C@H](C)NC)[nH]c2cc(F)ccc12 [Birinapant, birinapant] : reported CC50 at 6 days = ?
// result 6.47
